# maps each entry to its pIC50
Molecular target: Short transient receptor potential channel 6 (Mus musculus) (UniProt Q61143)
Sequence (Q61143 whole entry, looked up): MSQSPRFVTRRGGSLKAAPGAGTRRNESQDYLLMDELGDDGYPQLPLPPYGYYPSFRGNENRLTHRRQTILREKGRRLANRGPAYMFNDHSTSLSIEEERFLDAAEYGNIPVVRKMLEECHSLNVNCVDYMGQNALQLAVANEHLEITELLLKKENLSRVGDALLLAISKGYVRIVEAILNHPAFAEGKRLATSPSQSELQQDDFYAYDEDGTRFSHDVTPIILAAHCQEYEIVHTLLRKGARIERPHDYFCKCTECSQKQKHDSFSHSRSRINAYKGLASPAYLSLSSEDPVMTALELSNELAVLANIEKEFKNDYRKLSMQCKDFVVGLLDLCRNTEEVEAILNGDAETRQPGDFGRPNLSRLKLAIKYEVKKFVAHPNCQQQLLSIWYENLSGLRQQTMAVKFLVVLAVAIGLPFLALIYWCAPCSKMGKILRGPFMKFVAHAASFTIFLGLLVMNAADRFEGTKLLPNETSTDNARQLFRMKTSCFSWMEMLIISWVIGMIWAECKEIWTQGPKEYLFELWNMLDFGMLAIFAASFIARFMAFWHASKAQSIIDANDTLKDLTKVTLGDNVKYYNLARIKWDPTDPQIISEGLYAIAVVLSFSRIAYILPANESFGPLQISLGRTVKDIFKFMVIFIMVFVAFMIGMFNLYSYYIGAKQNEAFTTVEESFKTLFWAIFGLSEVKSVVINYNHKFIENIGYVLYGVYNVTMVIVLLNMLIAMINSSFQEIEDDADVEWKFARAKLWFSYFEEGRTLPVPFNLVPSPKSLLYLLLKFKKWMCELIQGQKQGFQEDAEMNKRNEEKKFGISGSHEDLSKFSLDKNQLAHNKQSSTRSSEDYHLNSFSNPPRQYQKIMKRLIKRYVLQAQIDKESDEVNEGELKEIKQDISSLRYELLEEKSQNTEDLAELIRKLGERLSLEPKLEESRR
Assay: TRPC6 inhibitor potency, dose response, cell-based, mouse TRPC6, HEK293, membrane potential (AID 2696)
Conditions: TRPC6-expressing HEK293 cells, membrane potential dye fluorescence, acetylcholine-stimulated
pIC50: −log10 of the molar value.

COMPOUND: Cc1ccc(C(OCC(C)(C)C[N+](C)(C)C)c2ccccc2)cc1 (stereo unspecified)
pIC50: 4.35
//
COMPOUND: Cc1ccc(C(=O)OCCc2sc[n+](Cc3ccccc3)c2C)cc1
pIC50: 4.75
//
COMPOUND: Nc1c2ccccc2nc2ccccc12
pIC50: 4.15
//
COMPOUND: CCOC(=O)c1[nH]c2ccc(F)cc2c1NC(=O)CN1CCN(C/C=C/c2ccccc2)CC1
pIC50: 4.50
//
COMPOUND: Cc1cccn2c(=O)c3cc(C(=O)NC(C)C)c(=N)n(Cc4ccncc4)c3nc12
pIC50: 4.15
//
COMPOUND: O=C(NNS(=O)(=O)c1ccc2ccccc2c1)C1CCN(Cc2ccccc2)CC1
pIC50: 5.85
//
COMPOUND: CCOC(=O)c1sc(=S)n(-c2ccccc2Cl)c1SC
pIC50: 4.90
//
COMPOUND: CCCn1c(=N)n(CC(=O)c2ccc(Cl)cc2)c2ccccc21
pIC50: 4.15
//
COMPOUND: CCOC(=O)c1ccc(NC(=O)CCc2ccc(CC)o2)cc1
pIC50: 4.10
//
COMPOUND: COc1ccc2ccccc2c1CNCc1ccc(C)cc1
pIC50: 4.35
//
COMPOUND: CCOC(=O)c1ccc(NC(=S)NCc2ccco2)cc1
pIC50: 4.30

Origin of values: PubChem BioAssay AID2696
